- system-tested: Endothelin-1 receptor (Homo sapiens, UniProt P25101)
- Sequence (P25101 whole entry): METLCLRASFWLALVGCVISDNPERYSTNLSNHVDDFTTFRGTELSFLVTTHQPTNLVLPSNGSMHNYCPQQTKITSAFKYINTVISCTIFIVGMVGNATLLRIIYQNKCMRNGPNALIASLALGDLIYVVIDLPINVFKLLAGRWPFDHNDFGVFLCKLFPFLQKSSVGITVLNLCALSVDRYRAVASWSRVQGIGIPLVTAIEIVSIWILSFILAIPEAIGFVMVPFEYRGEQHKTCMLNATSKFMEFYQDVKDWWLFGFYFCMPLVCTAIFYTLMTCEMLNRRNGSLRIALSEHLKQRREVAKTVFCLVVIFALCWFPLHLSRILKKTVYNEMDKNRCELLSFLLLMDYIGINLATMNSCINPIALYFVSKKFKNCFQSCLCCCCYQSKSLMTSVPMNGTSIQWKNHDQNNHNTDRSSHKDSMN
- protocol-notes: Inhibition of specific binding of [125-I]ET-1 to human endothelin A receptor
Below, each of the molecules is paired with its reported IC50 value.
Reply numerically in nM, unit not repeated.

Worked cases, IC50 given:
{"columns": ["test-smiles", "IC50, nM"],
 "data": [
  ["CN(C)c1cccc2c(S(=O)(=O)Nc3ccc(Cl)cn3)cccc12", 2000],
  ["Cc1cc(Br)cnc1NS(=O)(=O)c1cccc2c(N(C)C)cccc12", 316],
  ["CN(C)c1cccc2c(S(=O)(=O)Nc3cnccn3)cccc12", 1000]
]}

# input Return reported IC50. Input molecule: COc1nc(Cl)cnc1NS(=O)(=O)c1cccc2c(N(C)C)cccc12
# output 10

# input State its IC50 for this molecule: Cc1ccc(NS(=O)(=O)c2cccc3c(N(C)C)cccc23)nc1
# output 1580

# input Return IC50 (reported value) for this molecule: COc1ccc(NS(=O)(=O)c2cccc3c(N(C)C)cccc23)nn1
# output 316

# input Given the molecule COc1nc(Br)cnc1NS(=O)(=O)c1cccc2c(N(C)C)cccc12 , write its reported IC50.
# output 63.1

# input Dear colleague, please send me the reported IC50 for CN(C)c1cccc2c(S(=O)(=O)Nc3cnc(Br)cn3)cccc12 when you can.
# output 126

src = ChEMBL document CHEMBL1129980
